- experimental target: Cyclic GMP-AMP synthase (Homo sapiens, UniProt Q8N884)
- Sequence (Q8N884 whole entry): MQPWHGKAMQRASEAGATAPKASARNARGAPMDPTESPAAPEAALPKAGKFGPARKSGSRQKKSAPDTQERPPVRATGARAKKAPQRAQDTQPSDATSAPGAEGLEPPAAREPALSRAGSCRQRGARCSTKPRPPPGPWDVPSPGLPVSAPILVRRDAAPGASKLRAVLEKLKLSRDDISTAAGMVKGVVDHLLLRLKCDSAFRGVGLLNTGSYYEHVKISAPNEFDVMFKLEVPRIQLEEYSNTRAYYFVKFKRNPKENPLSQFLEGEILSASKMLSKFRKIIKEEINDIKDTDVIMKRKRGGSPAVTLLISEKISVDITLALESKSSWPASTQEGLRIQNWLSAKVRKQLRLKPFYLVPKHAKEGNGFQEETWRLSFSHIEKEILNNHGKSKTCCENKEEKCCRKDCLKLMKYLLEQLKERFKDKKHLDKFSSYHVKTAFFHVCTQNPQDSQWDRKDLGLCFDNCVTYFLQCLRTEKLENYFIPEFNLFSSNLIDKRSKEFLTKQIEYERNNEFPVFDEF
- test name: Inhibition of CGAS in human THP1 cells transfected with interferon stimulatory DNA and measured after 16 hrs by Gaussia luciferase reporter gene assay
- Type: cell-based
reported endpoint: IC50

Below, each entry is followed by its recorded IC50 result.
compound | measured value
CN1C(=O)S/C(=C\c2cc(OCc3cnc(NN)nc3)c(O)cc2Br)C1=O | ≤ 2.5 µM
COCCNc1ncc(COc2cc(/C=C3\Sc4ncccc4C3=O)c(Br)cc2O)cn1 | 2.5 to 10 µM
O=C1/C(=C/c2cc(OCc3cncnc3)c(O)cc2Br)Sc2ncccc21 | 2.5 to 10 µM
C#CCOc1cc(/C=C2\SC(=O)N(C)C2=O)c(Br)cc1O | 2.5 to 10 µM

As a next step, examine the compound that follows.
Input: Print Cyclic GMP-AMP synthase (Homo sapiens, UniProt Q8N884) IC50 for CC(Oc1cc(/C=C2\Sc3ncccc3C2=O)c(Br)cc1O)c1cnc(N)nc1 (stereo not given) .
Output: ≤ 2.5 µM

###

Kindly state pIC50 for each of the entries shown.
- experimental target: Cyclic GMP-AMP synthase (Homo sapiens)
- test name: Inhibition of recombinant His6-SUMO tagged human CGAS expressed in Escherichia coli BL21/pLys cells incubated for 20 mins by Kinase Glo chemiluminescence assay
pIC50: −log10 of the molar value.

compound | experimental target | pIC50
CC(Oc1cc(/C=C2\SC(=O)N(C)C2=O)c(Br)cc1O)c1cncnc1N (configuration not stated) | Cyclic GMP-AMP synthase (Homo sapiens) | ≥ 6.30
CN1C(=O)S/C(=C\c2cc(OCc3cnc(-c4ccccc4)nc3)c(O)cc2Br)C1=O | Cyclic GMP-AMP synthase (Homo sapiens) | ≤ 5.00
Cc1nc(N)ncc1COc1cc(/C=C2\SC(=O)N(C)C2=O)c(Br)c(F)c1O | Cyclic GMP-AMP synthase (Homo sapiens) | ≥ 6.30
COc1nc(N)ncc1COc1cc(/C=C2\SC(=O)N(C)C2=O)c(Br)cc1O | Cyclic GMP-AMP synthase (Homo sapiens) | ≤ 5.00
CN1C(=O)S/C(=C\c2cc(OCc3ccnc4ccccc34)c(O)cc2Br)C1=O | Cyclic GMP-AMP synthase (Homo sapiens) | ≤ 5.00
CC(Oc1cc(/C=C2\SC(=O)N(C)C2=O)c(Br)c(F)c1O)c1cncnc1 (configuration not stated) | Cyclic GMP-AMP synthase (Homo sapiens) | ≤ 5.00

As a next step, examine the compound that follows.
Input: Let me know recorded pIC50 for CN1C(=O)S/C(=C\c2cc(OCc3cnc(NCc4cccnc4)nc3)c(O)c(F)c2Br)C1=O , thanks.
Output: 5.00 to 6.30

###

- experimental target: Cyclic GMP-AMP synthase (Homo sapiens, UniProt Q8N884)
- test name: Inhibition of recombinant His6-SUMO tagged human CGAS expressed in Escherichia coli BL21/pLys cells incubated for 20 mins by Kinase Glo chemiluminescence assay
Kindly state IC50 for each of the entries shown.

test smiles | reported endpoint | measured value
O=C1/C(=C/c2cc(OC(F)(F)F)c(O)cc2Br)Sc2ncccc21 | IC50 | 0.5 to 10 µM
COc1cc(/C=C2\Sc3ncccc3C2=O)c(Br)c(Br)c1O | IC50 | ≥ 10 µM

As a next step, examine the molecule that follows.
Input: Let me know recorded IC50 for CN1C(=O)S/C(=C\c2cc(OCc3ccc4ncccc4c3)c(O)cc2Br)C1=O , thanks.
Output: ≥ 10 µM

Sourced from ChEMBL document CHEMBL4418308
